Tested on: K4 kissing-loop RNA reporter;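 also: bound reporter read as fluorescence of individual clusters on recovered sequencing chips by microscopy, with normalized cluster intensities fitted with a binding model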
TEST_SUMMARY: apparent KD of K4 kissing-loop reporter; higher = weaker reporter binding
MEASUREMENT_PARAMETERS: Eterna round: R107; input ligand: FMN 200 uM
REPORTED_ENDPOINT: apparent KD of K4 kissing-loop reporter (µM)

* GGAUAGGACAGAGGAUAUCCUUGAGGCAAGAAACUUGUCUCUAAAGGAUGAAUCCUAGUGAUGUUAGGAGAAGGCUGUCCUAUCG [FmnBX 14 - #SwitchBubble #StaticStem #Palindromic] | 0.103
* GCGCGUCAUGUCAGCGGUGACACUGUCGAUACCAGUGCCGCAAGGCGCCCUUGGCAGCGACGUGCUGGAGUGAUGUUCCAGCGUU [#2 Exclusion - Theophylline A Attempt #29 (HarryS)] | 0.156
* AGGCACGAGCAAGGAUAUCGAGUAGAGUGAUGUUCUGCCUGGGUUGGCCCGUAAGGGCCUUCCCAGCGAGAAGGUGCUCGUGCCU [#2 Same State - FMN A Attempt #10 (HarryS)] | 0.233
* UGAUUGGCAAAAGUAGUGAUGUUACGAAUAUAGGAUAUUAGAGGAAUAAGAAGGAUAAGGGAGAAAUAGGUAAAUUGUUGGUUGG [whbob_SS_FMNA__2th171] | 0.0456
* CCCAAGGGCCUACCGGUAUGAUGGACGGAUACCAGAGGCGAAAGCCUCCCUUGGCAGCCGGGUGUAGUGAUGUUACUCCGGUAGU | 0.0751
* GGAUAGGACGGAGGAUAUGGUAGUGAUGUUACCAAACUGGUUAAACAUGUCAGAAAACUGGCAUGACCAGAAGGCCGUCCUAUCG [FmnBX 27 G10+C76] | 0.108

----------
Tested on: MS2 coat protein
TEST_SUMMARY: apparent KD of MS2 coat protein; higher = weaker reporter binding
MEASUREMENT_PARAMETERS: Eterna round: R107; input ligand: tryptophan 2.4 mM
// values below are reported apparent KD of MS2 coat protein
REPORTED_ENDPOINT: apparent KD of MS2 coat protein (nM)

- UGUAUGUGAUUUGAUACCAGACCAGCUGGUGGUACCUGAGGAACACCCAGGUAGGUUUGGGUCCCUUGGCAGCAAAUCGCAUACU [SS Theo B #24 Ms7]: 33.3
- CAACUGGCAGAGGAUACCAGAUCAUUUAGAAACAUGAGGAUCACCCAUGUCGUAAGGAUAAUCCCUUGGCAGCCUAUCCGCCUCG [theeternabot_sameState_MS2_Theo_B_48]: 14.5
- UUGCAGAUCGGAAAGGUCCUGCUGUUCGAAGGAGCGGUAAAAGUACCAGGUAGGUCGCGAACAUGAGGAUCACCCAUGUUUGCAA [Usmaenbi]: 21.1
- CGUAUUACGAAAGUAGUACGUAGUUCGAGUCGAGGACCGGUACGGCCGCCACUCGGACAUGAGGAUCACCCAUGUAGCGAAAGCU [Tryptophan A 23]: 72.4
- ACACAUGAGGAUCACCCAUGUAAAGUUGAAGGAGCGAUCAUUAGGUCAGGUAGGUCGCAGCACAUGAGGAUCACCCAUGUCGUGA [DOUBLE!!! :-D #2]: 86.9
- GGCCAAAAGGCGGCCGCCACUCAAGAGUAGCAUGGAAAGACAUGAGGAUCACCCAUGUAAAGAAAGAGGACCGGGCCAAAAGGCC: 193
- UAGACGGCCGGAAGGAGCGGUACAUGAGGAUCACCCAUGUACUUCUGGGCAUCCGUAGUGUGCCAGGUAGGUCGCCGGUUGCGGG [XArg-B20]: 19.9
- GAUGAACUAUUUGAUACCAGACUACAUGAGGAUCACCCAUGUGCGCGUCGUCCUCUGCCAGUCCCUUGGCAGCAAAUAGUUUAUC [XTheo B #9]: 85.2
- UUGUUGUUUGGAAGGAGCGUGUAUGAGUUAGAACAUGAGGAUCACCCAUGUUGGAUGAUAGCACAGGUAGGUCGCCGGGUGGUGG [11.Y]: 11
- GGUGGCGGGACUGAUACCAGCCACCACCGAUAGACCACAUGAGGAUCACCCAUGUUGGGUGGCCCUUGGCAGCAGUCUUGCGGCG [#1 Same State - Theophylline B Attempt #15 (HarryS)]: 1290
- GAGCUGAUGUAGAAAUUUUAUUUAUGAGAUACCAGUACAGAAAUGUACCCUUGGCAGCUCAUUUUUACAUGAGGAUCACCCAUGU [Ex Theophylline A 14]: 13.3
- CUAUCCUUGCCGGAUGAAGGACACUGAGAAGGAGCGCGGUAAUCCGCAGGUAGGUCGCUCAGGAGUACAUGAGGAUCACCCAUGU [Xeonrave]: 20.7
- AACCGAGGCUAUCCUCUAAGAAUAUGUGAUACCAGAAUAAUUUUAUUCCCUUGGCAGCAUGACAUGAGGAUCACCCAUGUGUCUU [SSTheo A #7]: 136
- GGACUAACCAGAAGGAGCGGCACAAGCAGAAACUGCAAUCCUCCGCACGAGGAUCACCCGUGUCAGGUAGGUCGCUGGUUAGUCG [ArgBX 28]: 63.7
- UAUAUAUAUAUGGAUACCAGCAGAGAAAACGUUUAUCCUAACAUGAGGAUCACCCAUGUAUGCCCUUGGCAGCUGUAUAUAUAUA [8.G]: 24.7
- UGUAUGGACUGAAGGAGCGGAAAAUAAAUCUGAGGAUCACCCAGGUAAUAGGCGAAAGCCAUCCAGGUAGGUCGCAGUCCAUACU: 105

----------
Test system: MS2 coat protein
TEST_SUMMARY: apparent KD of MS2 coat protein; designed switch direction (-1 OFF switch, 1 ON switch): -1; higher = weaker reporter binding
MEASUREMENT_PARAMETERS: Eterna round: R95; input ligand: none
Returns one of Yes or No; Yes when apparent KD of MS2 coat protein is >= 0.02 µM.

• AGUAGUAGUAUCCGAUCCUACAUGAGGAUCACCCAUGUUGCUAGACGUGCACGCGAUGCUCGUCAGACUACCAGAUG [salish99_TOv1_r3_050] (puzzle: Sensor v3, turn-off variant 1) = Yes
• AAUUCUAGGGUCAGACGCACAAGCUUUUUGCUCGUUUUAACAUGAGGAUCACCCAUGUCUAGUGGAUCUGAUCGGGC [JL ViennaUCT Isreen mod 8] (puzzle: Sensor v3, turn-off variant 2) = Yes
• AAAAGAAGUGUUAGGAUAUGUGGAAGUAGAAAGACACAGAAGGGACAUGAGGAUCACCCAUGUGGCCAAAGAAC [Vecedies] (puzzle: Brourd's mod of Exclusion 4) = No
• GGCGGUGCAGGAUAUUGAAAACUACACAUGAGGAUCACCCAUGUUCCUCACCGGUACAAGCAAGAAGGGCGGUGCA [Erxegetiis] (puzzle: Exclusion 5) = No
• UAAAAUAGUGUGAGGAUAUGCUGGUCCUUGGAUCAGCAGAAGGCACAUGAGGAUCACCCAUGUAGUUAAUAAUA [Mat - Exclusion 4 - JL Mod - D25] (puzzle: Brourd's mod of Exclusion 4) = Yes
• AAGAAACAUGAGGAUCACCCAUGUGAGGAUAUGAAAAAUAAAAGAAAAGAAAUAAUAAUCAGAAGGCACAAAGG [Mat - Mod of Hog D9] (puzzle: Exclusion 1) = Yes
• AGUACUAUCACGAAAGUGAUAGUACAAUAAGCAAGUGAAACAUGAGGAUCACCCAUGUCCUCAUUUGCUCGUCUUAU [salish99_TOv2_r3_200again] (puzzle: Sensor v3, turn-off variant 2) = No
• AGUACUAUGCGUGCUGACAUGCGUAGUGCAGCAGGUGUUACAUGAGGAUCACCCAUGUCCUCAUUUGCUCGUCUUAA [Mat - Sensor v3 - Turn-off var 2 - D16] (puzzle: Sensor v3, turn-off variant 2) = Yes
• GGCGACCACCUCGUGCACUACAUGAGGAUCACCCAUGUUUUUCGCUCGUCUUAUGCGCCAACCUCCCAAACACUAAG [Gelaesxe] (puzzle: Sensor v3, turn-off variant 1) = Yes
• AGAUGUAGAUACCGGUCCUACAUGAGGAUCACCCAUGUAGCUUGACGUGCGGGCGGCGCUCGUCGGUCUACCAGUAG [salish99_TOv1_r3_100] (puzzle: Sensor v3, turn-off variant 1) = Yes

----------
A collection of sequences and their measured apparent KD of MS2 coat protein
System: MS2 coat protein
TEST_SUMMARY: apparent KD of MS2 coat protein; higher = weaker reporter binding
MEASUREMENT_PARAMETERS: Eterna round: R107; input ligand: tryptophan 2.4 mM
REPORTED_ENDPOINT: apparent KD of MS2 coat protein

• AUGCAGGGCAACAGCCACUGUCACGGUGAUACCAGUACCCGUGCGUACCCUUGGCAGCAUCGUGGUACAUGAGGAUCACCCAUGU [Enatleceed] = 546 nM
• AACGUAUACAGAAGGAGCGUGAUUUAUUAUUCUUUAAGAUAUACAUGAGGAUCACCCAUGUCACAGGUAGGUCGCUGUAUUCGUA [JR_ExcArginiB_Sub025] = 34.6 nM
• UCUUUCUUUGUAGAUACCAGCGUGUUAUCUUUCUUUUGACAUGAGGAUCACCCAUGUAUAUGCCCUUGGCAGCUACAUAUUCUUU [#01 Same State - Theophylline B] = 18.2 nM
• GCGGUCCACUUGGAUACCAGCAGAUUAAUAAACAUGAGGAUCACCCAUGUAAGCGCCUUGUGCCCUUGGCAGCCAGGGUGGUCAG [theeternabot_sameState_MS2_Theo_B_50] = 88.4 nM

Taken from the supplement of paper PMC9170038.
